Data credit: PubChem BioAssay AID1851

target-or-test-system: Cytochrome P450 1A2 (Homo sapiens) (UniProt P05177)
Sequence (P05177 whole entry, looked up): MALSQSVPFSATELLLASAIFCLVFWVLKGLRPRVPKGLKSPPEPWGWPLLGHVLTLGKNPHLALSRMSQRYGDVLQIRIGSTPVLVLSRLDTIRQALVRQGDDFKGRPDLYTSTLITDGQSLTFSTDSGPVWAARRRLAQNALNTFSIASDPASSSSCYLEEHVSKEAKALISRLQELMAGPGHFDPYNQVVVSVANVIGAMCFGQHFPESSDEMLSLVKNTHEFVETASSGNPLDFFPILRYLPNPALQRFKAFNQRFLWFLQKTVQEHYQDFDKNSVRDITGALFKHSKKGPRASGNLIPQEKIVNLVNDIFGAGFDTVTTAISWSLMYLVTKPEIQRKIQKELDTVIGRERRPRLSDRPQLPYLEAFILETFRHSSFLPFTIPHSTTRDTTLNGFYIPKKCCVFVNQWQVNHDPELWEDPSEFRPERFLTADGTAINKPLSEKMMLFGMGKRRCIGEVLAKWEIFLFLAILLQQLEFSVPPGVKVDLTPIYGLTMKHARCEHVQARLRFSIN
protocol-details: Cytochrome panel assay with activity outcomes
experimental-parameters: recombinant CYP, pro-luciferin dealkylation, luminescence, p450-cyp1a2; series mostly up to 57.1 µM
The campaign covered roughly 16,000 compounds. About 5,700 (36%) were called active. Inconclusive results (about 24%) are left out. Calls follow the shape of the dose curve; as a rule, active = well fitted curve in the direction sought with a large enough effect; inconclusive = small, poorly fitted or top-dose-only effect, or effect the other way; inactive = no such curve, though single readings can be large or run the other way. Some of the results follow.
Log the outcome using a class from y = active, n = inactive

Some solved entries appear below for comparison.
{"compound": "Nc1c(O)cccc1C(=O)C[C@@H](N)C(=O)O", "target-or-test-system": "Cytochrome P450 1A2 (Homo sapiens) (UniProt P05177)", "assigned-label": "n"}
{"compound": "Cc1cc(N)c2ccccc2[n+]1CCCCCCCCCCCCCC[n+]1c(C)cc(N)c2ccccc21", "target-or-test-system": "Cytochrome P450 1A2 (Homo sapiens) (UniProt P05177)", "assigned-label": "n"}
{"compound": "Cc1nc2c(n1C1CCCCC1)C(=O)c1ccccc1C2=O", "target-or-test-system": "Cytochrome P450 1A2 (Homo sapiens) (UniProt P05177)", "assigned-label": "y"}
{"compound": "CN(CC(=O)N1CCN(c2ccccc2)CC1)S(=O)(=O)c1cnc[nH]1", "target-or-test-system": "Cytochrome P450 1A2 (Homo sapiens) (UniProt P05177)", "assigned-label": "n"}
{"compound": "C/C(=N/NC(=O)c1ccc(NC(=O)c2ccc(F)cc2)cc1)c1ccccc1", "target-or-test-system": "Cytochrome P450 1A2 (Homo sapiens) (UniProt P05177)", "assigned-label": "n"}

Request: Returns: the outcome recorded for CCn1c(C)nc2c1C(=O)c1ccccc1C2=O in this assay.
Result: y

Request: Returns: the outcome recorded for O=C(NNc1nc2ccccc2s1)C1CC1 in this assay.
Result: y

Request: Returns: the outcome recorded for CC(C)OP(=O)(OC(C)C)C(NC(=O)c1ccc(Br)cc1)c1ccccc1 (configuration not stated) in this assay.
Result: n

Request: Returns: the outcome recorded for C#CCSc1nncn1C(=O)/C=C/c1ccccc1 in this assay.
Result: y

Request: Returns: the outcome recorded for Clc1ccccc1-c1nccc(-n2ccnc2)n1 in this assay.
Result: y

Request: Returns: the outcome recorded for FC(F)(F)c1nnc(-c2ccccc2)nc1Sc1ccccc1 in this assay.
Result: y

Request: Returns: the outcome recorded for C/C(=N\NC(=O)c1cccc(Br)c1)c1ccc(Br)cc1 in this assay.
Result: y

Request: Returns: the outcome recorded for CC(=O)c1c(N2CCC(C(N)=O)CC2)nc(=S)n(-c2ccccc2)c1C in this assay.
Result: n

Request: Returns: the outcome recorded for COc1ccccc1-c1nccc(-n2ccnc2)n1 in this assay.
Result: y

Request: Returns: the outcome recorded for Cc1cc(SCC(=O)c2cccs2)nc2c(C)cccc12 in this assay.
Result: y

Request: Returns: the outcome recorded for [N-]=[N+]=Nc1ccc(C(=O)CSC[C@@H](NC(=O)CC[C@@H](N)C(=O)O)C(=O)NCC(=O)O)cc1 in this assay.
Result: n

Request: Returns: the outcome recorded for C#CCCCC(=S)Nc1ccccc1 in this assay.
Result: y

---

target-or-test-system: Cytochrome P450 1A2 (Homo sapiens) (UniProt P05177)
protocol-details: Cytochrome panel assay with activity outcomes
experimental-parameters: recombinant CYP, pro-luciferin dealkylation, luminescence, p450-cyp1a2; series mostly up to 57.1 µM
Hit rate of the full screen: of about 16,000 compounds, about 5,700 (36%) were called active. Inconclusive results (about 24%) are left out. The call rests on the fitted dose curve; in most records, active means well fitted curve in the direction sought with a large enough effect; inconclusive means small, poorly fitted or top-dose-only effect, or effect the other way; inactive means no such curve, though single readings can be large or run the other way. The list shows a part of the results.
Log the outcome using a class from yes (active), no (inactive)

Some solved entries appear below for comparison.
{"molecule": "CC(Oc1ccc(Cl)cc1)c1ccnn1S(=O)(=O)c1ccccc1 (centres undefined)", "assigned-label": "yes"}
{"molecule": "CCCN1CCN(C(=O)CN2C(=O)CC(C)(C)S(=O)(=O)c3ccccc32)CC1", "assigned-label": "no"}
{"molecule": "COc1ccc(C(=O)NC(=S)NCc2ccccc2)cc1", "assigned-label": "yes"}
{"molecule": "CC(=O)[C@@H]1CC[C@@H]2[C@@H]3C[C@H](C)C4=CC(=O)CC[C@@]4(C)[C@H]3[C@H](O)C[C@]21C", "assigned-label": "no"}
{"molecule": "COc1ccc(C(=O)NNC(=S)NC(=O)c2ccco2)cc1", "assigned-label": "no"}
{"molecule": "COc1ccc(N2CCN(C(CNC(=O)C3CCCCC3)c3cccnc3)CC2)cc1 (centres undefined)", "assigned-label": "no"}
{"molecule": "C=C1c2cccc(O)c2C(O)=C2C(=O)[C@@]3(O)C(O)=C(C(N)=O)C(=O)[C@@H](N(C)C)[C@@H]3[C@@H](O)[C@H]12", "assigned-label": "no"}
{"molecule": "Cc1ccc(C(=O)NC(=S)Nc2cc(-c3nc4ccccc4s3)ccc2C)cc1", "assigned-label": "no"}

Request: Returns: the outcome recorded for COc1ccc(CCN(C(=O)C(F)(F)F)C(C(=O)NC2CCCC2)c2cccs2)cc1 (centres undefined) in this assay.
Result: yes

Request: Returns: the outcome recorded for N/N=C1/CC(=O)NC(=O)N1 in this assay.
Result: yes

Request: Returns: the outcome recorded for CCCSc1nc(NCc2ccco2)c2c3c(sc2n1)COC(C)(C)C3 in this assay.
Result: yes

Request: Returns: the outcome recorded for Cc1[nH]c2c(C)ccc(C)c2c1CC(=O)O in this assay.
Result: yes

Request: Returns: the outcome recorded for Cn1c(=O)cc(SCC(=O)NCCCN2CCOCC2)c2ccc(Cl)cc21 in this assay.
Result: no

Request: Returns: the outcome recorded for CN(C)C(=O)N1CCCC(C(=O)NCCc2ccccc2)C1 (centres undefined) in this assay.
Result: no

Request: Returns: the outcome recorded for NC(N)=[N+]1CCc2ccccc2C1 in this assay.
Result: no

Request: Returns: the outcome recorded for CCSc1ncnc2c1sc1nc(-c3ccco3)c3c(c12)CC(C)(C)OC3 in this assay.
Result: no

Request: Returns: the outcome recorded for CC(Oc1ccccc1)c1ccnn1S(=O)(=O)c1ccccc1 (centres undefined) in this assay.
Result: yes

Request: Returns: the outcome recorded for Cc1cc(=O)[nH]c2ccccc12 in this assay.
Result: yes
